- System: Madurella mycetomatis MM55
- Assay notes: growth relative to untreated control; higher = less inhibition, active = 20 or less
- Condition set: 100 µM
Outcomes: active, inactive

{"columns": ["Compound", "Cat"],
 "data": [
  ["CC(N)CCn1c(Nc2cc(Cl)cc(C(F)(F)F)c2)nc2cnc(NC3CCCC3)nc21 (stereo not drawn)", "active"],
  ["CC(C)Oc1ccc(-c2nc(-c3cccc4c3CC[C@@H]4NCCO)no2)cc1C#N", "active"],
  ["Fc1ccc([C@@H]2CCNC[C@H]2COc2ccc3c(c2)OCO3)cc1", "active"],
  ["CC(C)(C)NC(=O)[C@@H]1CN(Cc2cccnc2)CCN1C[C@@H](O)C[C@@H](Cc1ccccc1)C(=O)N[C@H]1c2ccccc2C[C@H]1O", "inactive"],
  ["CC[C@@H]([C@H](C)O)n1ncn(-c2ccc(N3CCN(c4ccc(OC[C@@H]5CO[C@@](Cn6cncn6)(c6ccc(F)cc6F)C5)cc4)CC3)cc2)c1=O", "active"],
  ["C[C@H](NC(=O)c1cc2cccc(F)c2[nH]1)c1ccccc1", "active"],
  ["O=C(NCCN1CCCC1)c1ccc(Nc2nccc(-c3ccc(Cl)cc3)n2)cc1", "active"],
  ["NS(=O)(=O)OC[C@@H]1C[C@@H](n2ccc3c(N[C@H]4CCc5ccccc54)ncnc32)C[C@@H]1O", "inactive"],
  ["N#Cc1ccc(-c2ccc3nc(Oc4ccc(C(F)(F)F)cn4)cn3c2)nc1", "inactive"],
  ["Cc1ccc(-c2cc(C(F)(F)F)nn2-c2ccc(S(N)(=O)=O)cc2)cc1", "active"],
  ["NC1(c2ccc(-c3nc4ccn5c(O)nnc5c4cc3-c3ccccc3)cc2)CCC1", "active"],
  ["CC[C@H](Nc1ncnc2[nH]cnc12)c1nc2cccc(F)c2c(=O)n1-c1ccccc1", "inactive"],
  ["CC(=O)Nc1ccc(NC(=O)c2cc(-c3ccc(C)cc3O)n[nH]2)cc1", "inactive"],
  ["CC[C@H](NC(=O)c1cc2c(F)cccc2[nH]1)c1ccccc1", "active"],
  ["NC(=O)C(c1ccccc1)(c1ccccc1)[C@@H]1CCN(CCc2ccc3c(c2)CCO3)C1", "inactive"],
  ["CCC(CC)COC(=O)[C@H](C)NP(=O)(OC[C@H]1O[C@@](C#N)(c2ccc3c(N)ncnn23)[C@H](O)[C@@H]1O)Oc1ccccc1 (stereo partly drawn)", "inactive"],
  ["CN1[C@H]2CC[C@H]1CC(OC(c1ccccc1)c1ccccc1)C2 (stereo partly drawn)", "inactive"],
  ["CC(Nc1ccc2c(c1)OCCCO2)C(=O)Nc1cc(C(F)(F)F)ccc1N1CCOCC1 (stereo not drawn)", "inactive"],
  ["FC(F)(F)c1cc(Nc2nc3cnc(NCC4CC4)nc3n2C2CCNCC2)cc(C(F)(F)F)c1", "active"],
  ["Cn1c(O)nnc1Cn1ccc(C(F)(F)F)c(Oc2cc(Cl)cc(C#N)c2)c1=O", "inactive"],
  ["CN(C)c1cc(NC(=O)CNC(C)(C)C)c(O)c2c1C[C@H]1C[C@H]3[C@H](N(C)C)C(O)=C(C(N)=O)C(=O)[C@@]3(O)C(O)=C1C2=O", "inactive"],
  ["O[C@@H](c1cc(C(F)(F)F)nc2c(C(F)(F)F)cccc12)[C@H]1CCCCN1", "active"],
  ["CCCCOC(=O)c1c(C)cnc2ccccc12", "inactive"],
  ["CCSC1CCCCC1NCCn1c(=O)oc2cccnc21 (stereo not drawn)", "inactive"],
  ["CS(=O)(=O)c1ccc(-c2cnn3c2NC(c2cccc(S(=O)(=O)C4CC4)c2)CC3)cc1 (stereo not drawn)", "inactive"],
  ["Cc1nc2ccccn2c1C1(O)C(=O)Nc2c(Cl)cc(Cl)cc21 (stereo not drawn)", "inactive"],
  ["C[C@H](NC(=O)c1cc2c(F)cccc2[nH]1)c1ccccc1", "active"],
  ["CN1CCC(Oc2nc(Nc3ccccc3)nc3[nH]cc(-c4cnn(C)c4)c23)CC1", "active"],
  ["C[C@H](NC(=O)c1cc2ccc(Cl)cc2n1C)c1ccccc1", "inactive"],
  ["O=C(NC1CCCc2c1[nH]c1ccc(Cl)cc21)c1ccccn1 (stereo not drawn)", "active"],
  ["CO[C@H]1C[C@@H]2CC[C@@H](C)[C@@](O)(O2)C(=O)C(=O)N2CCCC[C@H]2C(=O)O[C@H]([C@H](C)C[C@@H]2CC[C@@H](O)[C@H](OC)C2)CC(=O)[C@H](C)/C=C(\\C)[C@@H](O)[C@@H](OC)C(=O)[C@H](C)C[C@H](C)/C=C/C=C/C=C/1C", "inactive"],
  ["C[C@H](NC(=O)c1cc2nc(C(F)(F)F)ccc2[nH]1)c1ccccc1", "inactive"],
  ["CCn1cnc2c(N3CCCC(c4ccncc4)C3)ncnc21 (stereo not drawn)", "inactive"]
]}
